I'd appreciate it if you could supply composite z-score values for the items below.
Test system: Human papillomavirus type 1a E7 protein (residues 1-88)
procedure_text: HPV1a E7 small-molecule binders, primary screen, biochemical, small-molecule microarray, residues 1-88, 635 nm (AID 1129)
recorded_conditions: small-molecule microarray binding, fluorescence 635 nm; higher = more signal

// worked examples, composite z-score included
COc1ccc([Si](C)(C)[C@H]2[C@H](CCO)O[C@@]3(C(=O)N(Cc4ccc(N5CCOC5=O)cc4)c4ccccc43)[C@@H]2C)cc1 = 0.516
C=CC[C@]1(C(=O)NCc2ccccc2)COC(c2ccc(OCCCO)cc2)=N1 = -0.0156
C=CCC(OC(C)=O)[C@@H]1[C@@H](N(Cc2cccc3ccccc23)C(=O)c2ccc(C)cc2)c2cc(OCCCO)ccc2N1C(=O)c1ccc2ccccc2n1 (some centres undefined) = 0.098

--- query ---
// query Hello, please tell me recorded composite z-score for this one: CCCC[C@H]1OB(O)C[C@H]2C1=C(C)C[C@H]1C(=O)C=CC(=O)[C@H]12
// result 0.615

====

procedure_text: FRG1 promoter luciferase signal modulators, primary screen, FRG1 inhibition for FSHD, cell-based, C2C12 myotubes, firefly/Renilla luciferase, luminescence (AID 1084)
recorded_conditions: higher = more signal, called active from +8 up or from −8 down
Class MET: z-score at least -0.1. Class NOT MET: z-score below -0.1.

Here are 5 molecules together with their reported answers.
C=C(/C(=C/C[C@@H](OC(C)=O)c1ccccc1OCCO)c1cc(C(=O)OC)ccc1OC)C(C)C = MET
COCCOC(=O)N1C(=O)[C@@]2(c3cc(C#CC4=CCCCC4)ccc31)[C@H](c1ccc(OCCO)cc1)N1[C@H](c3ccccc3)[C@H](c3ccccc3)OC(=O)[C@H]1[C@@H]2C(=O)N1CCCCCCC1 = NOT MET
O=C1C2C=CC(C(O)c3cccc(O)c3)N(Nc3ccccc3F)C2C(=O)N1c1ccccc1 (stereo not given) = MET
COC(=O)[C@@]1(Cc2ccc(F)cc2)[C@H]2c3cc(C(=O)N(C)C)n(CCn4cc([N+](=O)[O-])nc4C)c3C[C@H]2CN1C(=O)c1ccccc1 = MET
COC(=O)[C@@]1(Cc2ccccc2)[C@H]2c3cc(C(=O)N4CCCC4)n(Cc4ccc(C(F)(F)F)nc4)c3C[C@H]2CN1C(=O)c1ccccc1 = MET

// query Check if z-score >= -0.1 (inclusive). Item: COc1ccc(C(O)C2C=CC3C(=O)N(C)C(=O)C3N2Nc2ccc([N+](=O)[O-])cc2[N+](=O)[O-])cc1OCc1ccccc1 (stereo not given)
// result MET

// query Entry CO[C@H]1O[C@H](CO)[C@@H](OC(=O)Nc2ccccc2)[C@@H]2OC(=O)[C@H](Cc3ccccc3)C/C=C/C[C@@H](Cc3ccccc3)C(=O)O[C@@H]12 : is its z-score no less than -0.1?
// result NOT MET

// query Dear colleague, could you confirm whether CC(C)C[C@@H]1NC(=O)[C@@H]2C[C@H](C(=O)NCCCC[N+](C)(C)C)[C@H](c3ccc(O)cc3)N2C1=O has z-score at or above -0.1?
// result MET

// query Is z-score for COC(=O)[C@]1(CO)N=C(c2ccc(OCCCO)cc2)O[C@@H]1c1ccccc1CN=[N+]=[N-] at or above -0.1?
// result MET

// query Would you say COC(=O)[C@@]1(CCC(=O)OC(C)(C)C)N=C(c2ccc(OCCCO)cc2)O[C@H]1c1ccccc1CN=[N+]=[N-] shows z-score at minimum -0.1?
// result NOT MET

// query Does the molecule O=C1NC(=O)C2C1C=CC(C(O)c1ccc(F)cc1)N2Nc1ccccn1 (stereo not given) have recorded z-score that is -0.1 or more?
// result MET

// query Exam item: decide whether the reported z-score for CCOC(=O)C1=CC[C@@H](c2ccccc2Cl)N(S(=O)(=O)c2ccc(C)cc2)[C@H]1c1cccc(OC)c1 is at least -0.1.
// result NOT MET

// query Is z-score for C=CCC(OC(C)=O)[C@@H]1[C@@H](N(Cc2cc3ccccc3o2)C(=O)c2ccc(-c3ccccc3)cc2)c2cc(OCCCO)ccc2N1C(=O)c1ccc2ccccc2n1 (stereo not given in full) at or above -0.1?
// result NOT MET

// query Test whether the molecule CC(=O)NCCCC[C@@H]1NC(=O)[C@H]2C[C@@H](C(=O)NCCCCCC[N+](C)(C)C)[C@@H](c3ccc(O)cc3)N2C1=O records z-score of -0.1 or higher.
// result MET

// query Entry CCCCN1CC=CC23O[C@@H]4C=CCOC(=O)[C@@H]4[C@H]2C(=O)N(CCO)[C@@H]3C1=O (stereo not given in full) : is its z-score no less than -0.1?
// result MET

// query Determine whether measured z-score meets or exceeds -0.1 for CC(C)(C)N1CC=CC23O[C@@H]4/C=C\CCCOC(=O)C4[C@H]2C(=O)N(CCCCCCO)[C@@H]3C1=O (stereo not given in full)
// result NOT MET

// query Does the molecule CCOC(=O)C1=C(C(=O)OCC)N(S(=O)(=O)CC[Si](C)(C)C)[C@H](c2ccccc2)CC1 have recorded z-score that is -0.1 or more?
// result NOT MET

// query # bool: z-score of COc1ccc([Si](C)(C)[C@@H]2[C@@H](CCO)O[C@]3(C(=O)N(Cc4ccccc4)c4ccc(N5C(=O)c6ccccc6Oc6ccccc65)cc43)[C@H]2C)cc1 >= -0.1
// result MET

// query Is it the case that C=CCOC(=O)[C@@H]1[C@H]2C(=O)O[C@H](c3ccccc3)[C@H](c3ccccc3)N2[C@H](c2ccc(OCCOC(=O)[C@H]3C[C@H]4C(=O)NCC(=O)N4[C@H]3c3ccc(O)cc3)cc2)[C@@]12C(=O)Nc1ccc(I)cc12 has z-score reaching or exceeding -0.1?
// result MET
